Assay: Passive artificial membrane permeability (PAMPA)
Conditions: PAMPA; replicate R3; TIC of top well sample relative to sample at theoretical equilibrium
Observation type: Permeability% R3 (%)
Numbers only here, please. The scale is %.

I have this molecule here, O=C1C[C@H]2CCCN2C(=O)[C@H](Cc2ccccc2)NC(=O)[C@@H](NC(=O)c2ccc(Cl)s2)CSCCS(=O)(=O)CCSCCN1 [peptide 11] , and I need its recorded Permeability% R3.
1.91

I have this molecule here, O=C1CCSCc2cccc(n2)CSCCNC(=O)C2CN(C(=O)c3ccc(Cl)s3)CCN2C(=O)[C@H](CO)N1 (stereo partly drawn) [compound 24] , and I need its recorded Permeability% R3.
3.39

I have this molecule here, C[C@@H]1NC(=O)[C@@H](NC(=O)c2ccc(Cl)s2)CNC(=O)CCSCc2cccc(n2)CSCCNC1=O [compound 18] , and I need its recorded Permeability% R3.
1.69
